Entry source: patent US20230000870A1

- Assay Target: CDK2/Cyclin E1 complex (Homo sapiens, UniProt P24941)
- Assay: CDK2 kinase inhibition assay (Caliper/LabChip EZ Reader)
- Assay Setup: CDK2/Cyclin E1 0.5 nM, ATP 2 mM, 35 min at 27° C.
Readout Kind: IC50

## Input What value of IC50 on CDK2/Cyclin E1 complex (Homo sapiens, UniProt P24941) does Cc1n[nH]cc1-c1ccc2[nH]cc(-c3nc(NC4CCCNC4)ncc3C(F)(F)F)c2c1 (centres unmarked) have?
## Output 0.2 to 5 µM

## Input What value of IC50 on CDK2/Cyclin E1 complex (Homo sapiens, UniProt P24941) does CC(C)n1cc(-c2nc(NC3CCCNC3)ncc2Cl)c2ccccc21 (centres unmarked) have?
## Output 0.2 to 5 µM

## Input What value of IC50 on CDK2/Cyclin E1 complex (Homo sapiens, UniProt P24941) does O=C(c1ccc2c(-c3nc(NC4CCCNC4)ncc3C(F)(F)F)c[nH]c2c1)N1CCC(O)C1 (centres unmarked) have?
## Output ≥ 5 µM

## Input What value of IC50 on CDK2/Cyclin E1 complex (Homo sapiens, UniProt P24941) does "CCCCCc1ccc2c(-c3nc(N[C@@H]4CCCNC4)ncc3C(F)(F)F)c[nH]c2c1" have?
## Output 0.2 to 5 µM

## Input What value of IC50 on CDK2/Cyclin E1 complex (Homo sapiens, UniProt P24941) does CC(C)N1CCCC(Nc2ncc(Cl)c(-c3c[nH]c4ccccc34)n2)C1 (centres unmarked) have?
## Output ≥ 5 µM

## Input What value of IC50 on CDK2/Cyclin E1 complex (Homo sapiens, UniProt P24941) does FC(F)(F)c1cnc(NC2CCCNC2)nc1-c1c[nH]c2cc(-c3ccc4c(c3)OCCO4)ccc12 (centres unmarked) have?
## Output ≥ 5 µM

## Input What value of IC50 on CDK2/Cyclin E1 complex (Homo sapiens, UniProt P24941) does O=C1CCN(C(=O)c2ccc3c(-c4nc(NC5CCCNC5)ncc4C(F)(F)F)c[nH]c3c2)C1 (centres unmarked) have?
## Output 0.2 to 5 µM

## Input What value of IC50 on CDK2/Cyclin E1 complex (Homo sapiens, UniProt P24941) does "Cc1noc(C)c1-c1ccc2c(-c3nc(N[C@H]4CCCNC4)ncc3C(F)(F)F)c[nH]c2c1" have?
## Output 0.2 to 5 µM

## Input What value of IC50 on CDK2/Cyclin E1 complex (Homo sapiens, UniProt P24941) does CNC(=O)C1CNCC(Nc2ncc(C(F)(F)F)c(-c3c[nH]c4ccccc34)n2)C1 (centres unmarked) [Compound 256] have?
## Output 0.2 to 5 µM

## Input What value of IC50 on CDK2/Cyclin E1 complex (Homo sapiens, UniProt P24941) does Cc1[nH]c2ccccc2c1-c1nc(NC2CCCNC2)ncc1Cl (centres unmarked) have?
## Output ≥ 5 µM

## Input What value of IC50 on CDK2/Cyclin E1 complex (Homo sapiens, UniProt P24941) does FC(F)(F)c1cnc(NC2CCCNC2)nc1-c1c[nH]c2cc(N3CCCC3)ccc12 (centres unmarked) have?
## Output ≥ 5 µM

## Input What value of IC50 on CDK2/Cyclin E1 complex (Homo sapiens, UniProt P24941) does CP(C)(=O)c1cccc2c(-c3nc(NC4CCCNC4)ncc3C(F)(F)F)c[nH]c12 (centres unmarked) have?
## Output 0.2 to 5 µM

## Input What value of IC50 on CDK2/Cyclin E1 complex (Homo sapiens, UniProt P24941) does N#CC1CCN(C(=O)c2ccc3c(-c4nc(NC5CCCNC5)ncc4C(F)(F)F)c[nH]c3c2)C1 (centres unmarked) [Compound 293] have?
## Output 0.2 to 5 µM

## Input What value of IC50 on CDK2/Cyclin E1 complex (Homo sapiens, UniProt P24941) does Ic1cnc(NC2CCCNC2)nc1-c1c[nH]c2ccccc12 (centres unmarked) have?
## Output 0.02 to 0.2 µM

## Input What value of IC50 on CDK2/Cyclin E1 complex (Homo sapiens, UniProt P24941) does CC1NCCCC1Nc1ncc(Cl)c(-c2c[nH]c3ccccc23)n1 (centres unmarked) have?
## Output 0.2 to 5 µM

## Input What value of IC50 on CDK2/Cyclin E1 complex (Homo sapiens, UniProt P24941) does FC(F)(F)c1cnc(NC2CCCNC2)nc1-c1c[nH]c2cc(-c3ccc4[nH]cnc4c3)ccc12 (centres unmarked) have?
## Output 0.2 to 5 µM

## Input What value of IC50 on CDK2/Cyclin E1 complex (Homo sapiens, UniProt P24941) does Clc1cnc(NC2CCCNC2)nc1-c1c[nH]c2ccncc12 (centres unmarked) have?
## Output 0.2 to 5 µM
